molecular target: PD-1-Ig binding to PD-L1-TVMV-His (PD-L1-His) (Homo sapiens); construct: hPDL1(19-239)-TVMV-His; made in house; host or cells: HEK293T; experiment: PD-1/PD-L1 Homogenous Time-Resolved Fluorescence (HTRF) binding assay; conditions: range class; PD-L1-His 10 nM, PD-1-Ig 20 nM
Quantity: IC50

Substance Smiles	IC50
CCCC[C@H]1C(=O)N(C)[C@@H](CCCC)C(=O)N[C@@H](CC(C)C)C(=O)N[C@H](C(=O)NCC(N)=O)CSCC(=O)N[C@@H](Cc2ccc(O)cc2)C(=O)N(C)[C@@H](C)C(=O)N[C@@H](CC(N)=O)C(=O)N2CCC[C@H]2C(=O)N[C@@H](Cc2c[nH]cn2)C(=O)N[C@@H](CCC(=O)O)C(=O)N(CC(=O)O)CC(=O)N[C@@H](Cc2c[nH]c3ccccc23)C(=O)N[C@@H](CCN)C(=O)N[C@@H](Cc2csc3ccccc23)C(=O)N1C	5 to 9.9 nM

Next compound, please.
Identify the reported IC50 for the following entry. CCCC[C@H]1C(=O)N(C)[C@@H](CCCC)C(=O)N[C@@H](CC(C)C)C(=O)N[C@H](C(=O)NCC(N)=O)CSCC(=O)N[C@@H](Cc2ccc(O)cc2)C(=O)N(C)[C@@H](C)C(=O)N[C@@H](CC(N)=O)C(=O)N(CC(=O)O)CC(=O)N[C@@H](Cc2c[nH]cn2)C(=O)N[C@@H](CCC(=O)O)C(=O)N2C[C@H](O)C[C@H]2C(=O)N[C@@H](Cc2c[nH]c3ccccc23)C(=O)N[C@@H](CCN)C(=O)N[C@@H](Cc2csc3ccccc23)C(=O)N1C
5 to 9.9 nM

###

Target: PD-1-Ig binding to PD-L1-TVMV-His (PD-L1-His) (Homo sapiens, UniProt Q9NZQ7)
Construct: hPDL1(19-239)-TVMV-His; made in house; host or cells: HEK293T
Sequence (Q9NZQ7 with tags, fused parts or gaps): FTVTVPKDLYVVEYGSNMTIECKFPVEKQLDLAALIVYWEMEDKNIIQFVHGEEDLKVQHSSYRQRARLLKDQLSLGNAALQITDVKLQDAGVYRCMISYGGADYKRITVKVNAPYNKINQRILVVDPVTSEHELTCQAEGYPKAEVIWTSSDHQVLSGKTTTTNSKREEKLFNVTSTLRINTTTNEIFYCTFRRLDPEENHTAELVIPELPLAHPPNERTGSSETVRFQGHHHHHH
Test: PD-1/PD-L1 Homogenous Time-Resolved Fluorescence (HTRF) binding assay
Conditions: range class; PD-L1-His 10 nM, PD-1-Ig 20 nM
Excerpt: Methods for Testing the Ability of Macrocyclic Peptides to Compete for the Binding of Pd-1 to Pd-L1 Using Homogenous Time-Resolved Fluorescence (HTRF) Binding Assays The ability of the macrocyclic peptides of the present disclosure to bind to PD-L1 was investigated using a PD-1/PD-L1 Homogenous Time-Resolved Fluorescence (HTRF) binding assay. Homogenous Time-Resolved Fluorescence (HTRF) Assays of Binding of Soluble PD-1 to Soluble PD-L1. […]
pIC50: −log10 of the molar value. Numbered stars: 1 amine (or outer) side, 2 acyl side, 3 side chain; on linkers, the order of the positions; unused ones are H or OH. Bridge positions count the residues as written; N and C are the ends. Square brackets hold non-standard residues; d marks the D form. Peptide text beside a SMILES is read from it. X1 = O=C(CN(CCC(F)(F)F)[*:1])[*:2]; NMeNle = CCCC[C@H](NC)C(=O)O; NMeA = CN[C@@H](C)C(=O)O; Dab = NCC[C@H](N)C(=O)O
pIC50 values, listed per item

Compound	Study System	pIC50
CCCC[C@H]1C(=O)N[C@@H](CC(C)C)C(=O)N[C@H](C(=O)NCC(N)=O)CSCC(=O)N[C@@H](Cc2ccc(O)cc2)C(=O)N(C)[C@@H](C)C(=O)N[C@@H](CC(N)=O)C(=O)N2CCC[C@H]2C(=O)N[C@@H](Cc2cnc[nH]2)C(=O)N[C@@H](CCC(=O)O)C(=O)N2C[C@H](O)C[C@H]2C(=O)N[C@@H](Cc2c[nH]c3ccccc23)C(=O)N[C@@H](CCN)C(=O)N[C@@H](Cc2c[nH]c3ccccc23)C(=O)N(CC(=O)O)[C@@H](C)C(=O)N1C	PD-1-Ig binding to PD-L1-TVMV-His (PD-L1-His) (Homo sapiens, UniProt Q9NZQ7)	5.00 to 7.00

Enter measured pIC50, system PD-1-Ig binding to PD-L1-TVMV-His (PD-L1-His) (Homo sapiens, UniProt Q9NZQ7), for the compound shown: CCCC[C@H]1C(=O)N[C@@H](CC(C)C)C(=O)N[C@H](C(=O)NCC(N)=O)CSCC(=O)N[C@@H](Cc2ccc(O)cc2)C(=O)N(C)[C@@H](C)C(=O)N[C@@H](CC(N)=O)C(=O)N2CCC[C@H]2C(=O)N[C@@H](Cc2cnc[nH]2)C(=O)N[C@@H](CCC(=O)O)C(=O)N2C[C@H](O)C[C@H]2C(=O)N[C@@H](Cc2c[nH]c3ccccc23)C(=O)N[C@@H](CCN)C(=O)N[C@@H](Cc2c[nH]c3ccccc23)C(=O)N(CC(=O)O)CC(=O)N1C
5.00 to 7.00

Enter measured pIC50, system PD-1-Ig binding to PD-L1-TVMV-His (PD-L1-His) (Homo sapiens, UniProt Q9NZQ7), for the compound shown: CCCC[C@H]1C(=O)N(C)[C@@H](CCCC)C(=O)N[C@@H](CC(C)C)C(=O)N[C@H](C(=O)NCC(N)=O)CSCC(=O)N[C@@H](Cc2ccc(O)cc2)C(=O)N(C)[C@@H](C)C(=O)N[C@@H](CC(N)=O)C(=O)N2CCC[C@H]2C(=O)N[C@@H](Cc2cnc[nH]2)C(=O)N[C@@H](CCC(=O)O)C(=O)N(CCC(F)(F)F)CC(=O)N[C@@H](Cc2c[nH]c3ccccc23)C(=O)N[C@@H](CCN)C(=O)N[C@@H](Cc2c[nH]c3ccccc23)C(=O)N1C [Example 3007] ({CH2CO}-Y[NMeA]NPHE[X1]W[Dab]W[NMeNle][NMeNle]LCG-NH2; thioether N-14)
7.00 to 8.00
